Target: T1, mouse GLP-1 receptor (mGLP-1r) (Mus musculus, UniProt O35659)
T1 construct: expressed in transfected cells; host or cells: HEK293s or CHO cells
T1 sequence (O35659 22-463): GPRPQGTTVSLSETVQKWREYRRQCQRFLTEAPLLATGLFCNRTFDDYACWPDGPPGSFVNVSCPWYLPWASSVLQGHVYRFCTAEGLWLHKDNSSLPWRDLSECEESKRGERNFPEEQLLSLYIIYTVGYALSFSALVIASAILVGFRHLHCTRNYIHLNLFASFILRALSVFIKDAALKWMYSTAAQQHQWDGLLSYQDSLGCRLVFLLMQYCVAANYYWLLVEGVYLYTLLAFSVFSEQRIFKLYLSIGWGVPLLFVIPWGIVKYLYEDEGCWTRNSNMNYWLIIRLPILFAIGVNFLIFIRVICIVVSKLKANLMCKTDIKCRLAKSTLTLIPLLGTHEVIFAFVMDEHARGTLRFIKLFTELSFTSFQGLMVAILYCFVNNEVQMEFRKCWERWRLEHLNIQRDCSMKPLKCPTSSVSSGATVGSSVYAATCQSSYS
Assay: BSA-cAMP assay, cells expressing mouse GLP-1 receptor
Type: cell-based
Conditions: Batch 1; BSA-cAMP assay; read-out: mGLP1r cAMP activity EC50
This listing pairs molecules with measured pEC50.
Bear in mind: pEC50 is minus log10 of a mol/L concentration; give just that figure.

molecule: IP310 (protein) YSEGTFTSDVSSYMERQAIDEFIAWLLKGKAAAGGSGSTASSGSGSATGGGGAATHTCPPC
pEC50: 8.85

What value of pEC50 has been reported for the following molecule? IP373 (protein) YSEGTHTSDFSKLLERQAIDEFIAWLLKGGAAAGGSGSTASSGSGSATGGGGAATHTCPPC
8.04
